All values here come from PubChem BioAssay (NCI).

System: IGROV1 ovarian
Assay: NCI-60 one-dose screen, 48 h
Details: 10 µM unless noted
Method: Growth inhibition of the IGROV1 human tumor cell line is measured as a screen for anti-cancer activity. Cells are grown in 96 well plates and exposed to the test compound for 48 hours. Compounds are tested at a single concentration, which is 10^-5 M for most compounds. The reported endpoint is percent growth (GI% or GIPRCNT), where numbers from 0 - 100% represent growth inhibition, and numbers from -100% - 0 represent cell death. For example, a value of 40 represents 60% growth inhibition. […]
This is part of a sample that, as a whole, favours compounds with a hit. Of some 83,000 tested, about 20% had one in any assay. Calls of active or inactive are those of the source. Rule for the calls: active = growth percent below 10; inactive = the rest.
Outcome codes: yes (1) = active, no (0) = inactive

{"columns": ["compound", "answer.label"],
 "data": [
  ["CCCCCCC(=O)Nc1ncc(Cc2ccc(C)cc2)s1", "no (0)"],
  ["C=CCn1c(SCC(=O)Nc2ccc(C(=O)/C=C/c3ccc(OC)cc3)cc2)nnc1-c1ccccc1", "no (0)"],
  ["COc1ccc(OC)c(Nc2nnc(-c3ccc(Cl)cc3)o2)c1", "no (0)"],
  ["CN1CCN(Cc2ccc(NC(=O)c3cncc(C#Cc4cnn5ccccc45)c3)cc2C(F)(F)F)CC1", "yes (1)"],
  ["Cc1cc(N2CCCCC2)nc(N2CCN(CC(=O)Nc3ccc4c(ccn4Cc4ccccc4)c3)CC2)n1", "no (0)"],
  ["CN(C)c1ccc(/C=C2/C=C(c3ccccc3)OC2=O)cc1", "no (0)"],
  ["CC1(C)CC[C@]2(C(=O)N3CCOCC3)CC[C@]3(C)C(=CC[C@@H]4[C@@]5(C)C/C(=C/c6ccncc6)C(=O)C(C)(C)[C@@H]5CC[C@]43C)[C@@H]2C1", "no (0)"],
  ["COc1ccc(C2=Nc3c(N)ncnc3NC(c3cccc(Nc4ccnc5cc(C(F)(F)F)ccc45)c3)C2)cc1 (centres undefined)", "no (0)"],
  ["Cc1cccc(-n2c(C)nc3ccc(N4CCCNC4=O)cc3c2=O)c1", "no (0)"],
  ["C[N+](C)(C/C=C/c1ccccc1)Cc1ccccc1", "no (0)"],
  ["Cn1cc(-c2csc(-c3cn(C(=O)OC(C)(C)C)c4ccccc34)n2)c2ccnc(Cl)c21", "no (0)"],
  ["C#Cc1cccc(Oc2ccc(NC(=O)CCl)cc2)c1", "yes (1)"],
  ["CCN(CC)c1ccc(/C=N\\NC(=O)c2cccc(Nc3ccnc(C(F)(F)F)c3)c2)c(O)c1", "no (0)"],
  ["CNC(=O)c1c(NC(=O)c2ccc(C(C)(C)C)cc2)sc2c(CN(C)C)c(O)ccc12", "no (0)"],
  ["CS(=O)(=O)Cc1cnc(C2OCCO2)s1", "no (0)"],
  ["C=CCN=C(N)SCCCCCCSC(N)=NCC=C", "no (0)"],
  ["CC[C@H](Nc1nc(N)nc(C)c1C#N)c1nc2cccc(NCCCCCC(=O)NO)c2c(=O)n1-c1ccccc1", "yes (1)"],
  ["COc1ccc(/C(C)=C(\\c2ccc(OCCN3CCCCCC3)cc2)c2ccc(OC(=O)c3ccccc3)cc2)cc1", "no (0)"],
  ["COc1ccc(-c2nnc(SCC(=O)Nc3ccc(/C(C)=N\\O)cc3)n2-c2ccccc2)cc1OC", "no (0)"],
  ["COc1cc2oc(-c3cccc(NC(=O)c4ccc5c(c4)OCO5)c3)cc(=O)c2c(OC)c1OC", "no (0)"],
  ["O=C(CN1C(=O)NC2NC(=O)NC21)N/N=C/c1ccc(Cl)cc1Cl (centres undefined)", "no (0)"],
  ["CCCCCCCCn1ccc2cc(NC(=O)Cn3cc(CN4CCC(C)CC4)nn3)ccc21", "no (0)"],
  ["CC(CN)[C@@H]1CC[C@]2(CO)CC[C@]3(C)[C@H](CC[C@@H]4[C@@]5(C)CCC(N)C(C)(C)[C@@H]5CC[C@]43C)[C@@H]12 (some centres undefined)", "no (0)"],
  ["CCn1c2ccc(O)cc2c2c(C)c3c[n+](C(C)C)ccc3c(C)c21", "no (0)"],
  ["CCN1C(=O)N(CC)C2C1NN=C1SCC(=O)N12 (centres undefined)", "no (0)"],
  ["Cc1ccc2[nH]c(-c3ccc(S(C)(=O)=O)cc3)c(/C=N/N=C(N)N)c2c1", "no (0)"],
  ["COc1ccc2c(c1)c(-c1ccc(-c3cn(C)c4ccc(OC)cc34)[nH]1)cn2C", "no (0)"],
  ["O=[N+]([O-])/C(=C\\c1ccco1)c1ccccc1Cl", "no (0)"],
  ["N#Cc1nc(-c2ccc(F)cc2)oc1S(=O)(=O)N1CCN(c2ccc(F)cc2)CC1", "no (0)"],
  ["CC/C=C1/C(=O)C=C[C@@H]1C/C=C\\CCCC(=O)OC", "no (0)"],
  ["CC(C)c1ccc(-n2c(=S)[nH]c3sc4c(c3c2=O)CCC(=O)C4)cc1", "no (0)"],
  ["COc1ccc(-c2cc(C(=O)N3N=C(c4ccc(N)cc4)CC3c3ccccc3)c3ccccc3n2)cc1 (centres undefined)", "no (0)"],
  ["NC(=O)OCCn1cc(-c2nc(-c3c[nH]c4ncccc34)cs2)c2ccccc21", "no (0)"],
  ["CCCCCCCCNc1cc2c3c(c1)CCCN3CCC2", "no (0)"],
  ["O=C(/C=C/c1cccc(Cl)c1)c1cccc(OCCCCOc2cccc(C(=O)/C=C/c3cccc(Cl)c3)c2)c1", "no (0)"],
  ["COc1cc(C2=NN(C(C)=O)C(c3ccc(N(C)C)cc3)C2)cc(OC)c1OC (centres undefined)", "no (0)"],
  ["Cc1cc(N2CCN(C)CC2)nc(NCc2cc(Nc3ccnc4cc(Cl)ccc34)ccc2F)n1", "no (0)"],
  ["O=C(N/N=C/c1ccc(Cl)cc1Cl)c1ccc2nc(-c3ccc(Cl)cc3)[nH]c2c1", "yes (1)"],
  ["C=CCn1c(SCC(=O)Nc2ccc(C(=O)/C=C/c3cc(OC)c(OC)c(OC)c3)cc2)nnc1-c1cc(-c2ccc(OC)cc2)nc2ccccc12", "no (0)"]
]}
